Here, each record is paired with measured koff data.
- ASSAY SYSTEM: T1, rhesus serum albumin (rhesus, UniProt Q28522 17-600)
- T1 construct: also called RhSA; Rh-SA
- T1 sequence (Q28522 17-600 limits assumed): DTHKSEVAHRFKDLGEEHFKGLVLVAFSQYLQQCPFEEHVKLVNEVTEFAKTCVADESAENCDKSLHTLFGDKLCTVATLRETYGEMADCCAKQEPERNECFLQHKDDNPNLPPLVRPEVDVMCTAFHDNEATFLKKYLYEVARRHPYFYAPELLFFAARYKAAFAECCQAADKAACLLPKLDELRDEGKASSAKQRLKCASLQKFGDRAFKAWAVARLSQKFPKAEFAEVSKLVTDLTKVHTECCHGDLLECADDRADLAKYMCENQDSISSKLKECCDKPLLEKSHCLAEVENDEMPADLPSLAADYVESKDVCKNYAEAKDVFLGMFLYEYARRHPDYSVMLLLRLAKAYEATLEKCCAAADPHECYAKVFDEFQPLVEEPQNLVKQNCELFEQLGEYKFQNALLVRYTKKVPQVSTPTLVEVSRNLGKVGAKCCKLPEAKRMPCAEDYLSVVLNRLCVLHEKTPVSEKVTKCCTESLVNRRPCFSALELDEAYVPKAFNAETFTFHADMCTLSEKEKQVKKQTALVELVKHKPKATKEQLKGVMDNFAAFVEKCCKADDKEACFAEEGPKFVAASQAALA
- ASSAY DETAILS: SPR, albumin immobilized, Adnectin 250 nM
READOUT TYPE: koff (s⁻¹)

• 5963_A02.PS5-2 (designed binder) MGCSTSGVSDVPRDLEVVAATPTSLLISWDAPAVTVRYYRITYGREVQKYSDLGPLYIYQEFTVPGSKSTATISGLKPGVDYTITVYAVTGSGESPASSKPISINYRTPHHHHHH = 0.000313
• PKE2 Adnectin 2629_E06 (designed binder, 10Fn3 domain with modified CD loop; the entry includes the His6 tail; also called ADX_2629_E06) MGVSDVPRDLEVVAATPTSLLISWDAPAVTVRYYRITYGREVQKYSDLGPLYIYQEFTVPGSKSTATISGLKPGVDYTITVYAVTGSGESPASSKPISINYRTEIDKPSQHHHHHH = 0.000219
